B1: mRNA-splicing (parent)
chain: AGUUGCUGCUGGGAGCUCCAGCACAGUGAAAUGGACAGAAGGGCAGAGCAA

- Variants of: B1
- Protocol Description: exon inclusion enrichment index; higher = more inclusion; WT1 exon 5 minigene, HEK293
Would you please tag the item fulfilled when its exon inclusion enrichment index is 1 or above, and not fulfilled when it is below?

Would you please look over these solved cases?
Textbook exercise: given the entry AGUUAUAUAUGGGAGCUCCAGCACAGUGAAUAGGACAGAAGGGCAGAGCAA [G5A C6U U7A G8U C9A A31U U32A] , state whether its exon inclusion enrichment index is greater than or equal to 1. not fulfilled

Determine whether measured exon inclusion enrichment index meets or exceeds 1 for AGUUAUCACAGGGAGCUCCAGCACAGUGAAAUGGACAGAAGGGCAGAGCAA [G5A C6U U7C G8A U10A] not fulfilled

API: above_or_equal(metric=exon inclusion enrichment index, cutoff=1) for item AGUUACCACCGGGAGCUCCAGUUCAGUGAAAUGGACAGAAGGGCAGAGCAA [G5A U7C G8A U10C C22U A23U] fulfilled

Threshold query (exon inclusion enrichment index >= 1) on AGUUCUUCUCGGGAGCUCCAGCAAGGUGAAAUGGACAGAAGGGCAGAGCAA [G5C C6U G8C C9U U10C C24A A25G] fulfilled

Is reported exon inclusion enrichment index greater than or equal to 1 here: AGUUGCUGCUGGGAGCUCCAGCACAGUGAAAUGGACAGAAGGGCACGGCAA [G46C A47G] not fulfilled

---
# check: exon inclusion enrichment index of AGUUUCAUAUGGGAGCUCCAGCACAGUGAAAUGGACAGAAGGGCAGAGCAA [G5U U7A G8U C9A] is greater than or equal to 1 not fulfilled

Has AGCUCACACAGGGAGCUCCAGCACAGUGAAAUGGACAGAAGGGCAGAGCAA [U3C G5C C6A U7C G8A U10A] a recorded exon inclusion enrichment index greater than or equal to 1? not fulfilled

Evaluate AGUUCACACAGGGAGCUCCAGCACAGACAAAUGGACAGAAGGGCAGAGCAA [G5C C6A U7C G8A U10A U27A G28C] : exon inclusion enrichment index at minimum 1? not fulfilled

Reported exon inclusion enrichment index reaches at least 1 for AGUUGACGACGGGAGCUCAGGCACAGUGAAAUGGACAGAAGGGCAGAGCAA [C6A U7C C9A U10C C19A A20G] ? not fulfilled

Could you verify whether the entry AGUUUCUUUUGGGAGCUCCAGCACUAUGAAAUGGACAGAAGGGCAGAGCAA [G5U G8U C9U A25U G26A] shows exon inclusion enrichment index of no less than 1? not fulfilled

Hello, I need to know if AGUUGCUGCUGGGAGCUCCAGCACAGUGAAAUGGACAGAAGGGCAGGCCAA [A47G G48C] has measured exon inclusion enrichment index not below 1. Thanks! not fulfilled

Say whether AGUUAUAUAUGGGAGCUGGAGCACAGUGAAAUGGACAGAAGGGCAGAGCAA [G5A C6U U7A G8U C9A C18G C19G] shows exon inclusion enrichment index of 1 or more. not fulfilled

Is exon inclusion enrichment index for AGUUAUAUAUGGGAGCUCCAGCAUUGUGAAAUGGACAGAAGGGCAGAGCAA [G5A C6U U7A G8U C9A C24U A25U] at or above 1? not fulfilled

Decide: is the reported value of exon inclusion enrichment index for AGUUGACUACGGGAGCUCCAGCACAGUGAAAUGGACAGAAGGGCAGAGCAA [C6A U7C G8U C9A U10C] equal to or greater than 1? fulfilled

exon inclusion enrichment index >= 1 for AGCUACCACCGGGAGCUCCAGCACAGUGAAAUGGACAGAAGGGCAGAGCAA [U3C G5A U7C G8A U10C] ? fulfilled

Measured values drawn from the RNAGym collection of RNA variant scans (doi:10.1101/gr.219683.116) for this set.
